# procedure-details: probe aNog binding to arrayed compounds – biochemical, biotinylated probe, 635/667 nm fluorescence, primary screen (AID 1115);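 note: probe is biotinylated aNog protein used at 0.15 µg/mL for 1 h at 4 C; z-score combines 667 nm fluorescence of each spot with its signal to noise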
# condition-summary: small-molecule microarray, higher = more signal
Recorded composite z-score, one value per entry.
Lab note: jot down the number only; don't add units.

Some entries whose results are on file:
{"columns": ["compound", "composite z-score"],
 "data": [
  ["C=C(CCCC)/C(=C/C[C@@H](OC(C)=O)c1cccc(OCCO)c1)c1cnc2ccccc2c1", 0.123],
  ["CN(C)C(=O)[C@]1(Cc2ccccc2)N=C(c2ccc(OCCCO)cc2)O[C@@H]1c1ccccc1N=[N+]=[N-]", -0.0332],
  ["COCCOC(=O)N1C(=O)[C@@]2(c3cc(C#CC4(O)CCCCCC4)ccc31)[C@H](C(=O)Nc1nc3ccccc3s1)[C@H]1C(=O)O[C@H](c3ccccc3)[C@H](c3ccccc3)N1[C@@H]2c1ccccc1OCCO", 0.546]
]}

// switching to the query compound
Identify measured composite z-score corresponding to "C[N+](C)(C)CCCC[C@@H]1NC(=O)[C@@H]2C[C@H](C(=O)NCCCCCCNC(=O)CS)[C@H](c3ccc(O)cc3)N2C1=O"
-0.0721
